Values were extracted from PubChem BioAssay AID588689.

Target: Genome polyprotein (Dengue virus type 2 (strain 16681-PDK53)) (UniProt P29991)
Sequence (P29991 whole entry, looked up): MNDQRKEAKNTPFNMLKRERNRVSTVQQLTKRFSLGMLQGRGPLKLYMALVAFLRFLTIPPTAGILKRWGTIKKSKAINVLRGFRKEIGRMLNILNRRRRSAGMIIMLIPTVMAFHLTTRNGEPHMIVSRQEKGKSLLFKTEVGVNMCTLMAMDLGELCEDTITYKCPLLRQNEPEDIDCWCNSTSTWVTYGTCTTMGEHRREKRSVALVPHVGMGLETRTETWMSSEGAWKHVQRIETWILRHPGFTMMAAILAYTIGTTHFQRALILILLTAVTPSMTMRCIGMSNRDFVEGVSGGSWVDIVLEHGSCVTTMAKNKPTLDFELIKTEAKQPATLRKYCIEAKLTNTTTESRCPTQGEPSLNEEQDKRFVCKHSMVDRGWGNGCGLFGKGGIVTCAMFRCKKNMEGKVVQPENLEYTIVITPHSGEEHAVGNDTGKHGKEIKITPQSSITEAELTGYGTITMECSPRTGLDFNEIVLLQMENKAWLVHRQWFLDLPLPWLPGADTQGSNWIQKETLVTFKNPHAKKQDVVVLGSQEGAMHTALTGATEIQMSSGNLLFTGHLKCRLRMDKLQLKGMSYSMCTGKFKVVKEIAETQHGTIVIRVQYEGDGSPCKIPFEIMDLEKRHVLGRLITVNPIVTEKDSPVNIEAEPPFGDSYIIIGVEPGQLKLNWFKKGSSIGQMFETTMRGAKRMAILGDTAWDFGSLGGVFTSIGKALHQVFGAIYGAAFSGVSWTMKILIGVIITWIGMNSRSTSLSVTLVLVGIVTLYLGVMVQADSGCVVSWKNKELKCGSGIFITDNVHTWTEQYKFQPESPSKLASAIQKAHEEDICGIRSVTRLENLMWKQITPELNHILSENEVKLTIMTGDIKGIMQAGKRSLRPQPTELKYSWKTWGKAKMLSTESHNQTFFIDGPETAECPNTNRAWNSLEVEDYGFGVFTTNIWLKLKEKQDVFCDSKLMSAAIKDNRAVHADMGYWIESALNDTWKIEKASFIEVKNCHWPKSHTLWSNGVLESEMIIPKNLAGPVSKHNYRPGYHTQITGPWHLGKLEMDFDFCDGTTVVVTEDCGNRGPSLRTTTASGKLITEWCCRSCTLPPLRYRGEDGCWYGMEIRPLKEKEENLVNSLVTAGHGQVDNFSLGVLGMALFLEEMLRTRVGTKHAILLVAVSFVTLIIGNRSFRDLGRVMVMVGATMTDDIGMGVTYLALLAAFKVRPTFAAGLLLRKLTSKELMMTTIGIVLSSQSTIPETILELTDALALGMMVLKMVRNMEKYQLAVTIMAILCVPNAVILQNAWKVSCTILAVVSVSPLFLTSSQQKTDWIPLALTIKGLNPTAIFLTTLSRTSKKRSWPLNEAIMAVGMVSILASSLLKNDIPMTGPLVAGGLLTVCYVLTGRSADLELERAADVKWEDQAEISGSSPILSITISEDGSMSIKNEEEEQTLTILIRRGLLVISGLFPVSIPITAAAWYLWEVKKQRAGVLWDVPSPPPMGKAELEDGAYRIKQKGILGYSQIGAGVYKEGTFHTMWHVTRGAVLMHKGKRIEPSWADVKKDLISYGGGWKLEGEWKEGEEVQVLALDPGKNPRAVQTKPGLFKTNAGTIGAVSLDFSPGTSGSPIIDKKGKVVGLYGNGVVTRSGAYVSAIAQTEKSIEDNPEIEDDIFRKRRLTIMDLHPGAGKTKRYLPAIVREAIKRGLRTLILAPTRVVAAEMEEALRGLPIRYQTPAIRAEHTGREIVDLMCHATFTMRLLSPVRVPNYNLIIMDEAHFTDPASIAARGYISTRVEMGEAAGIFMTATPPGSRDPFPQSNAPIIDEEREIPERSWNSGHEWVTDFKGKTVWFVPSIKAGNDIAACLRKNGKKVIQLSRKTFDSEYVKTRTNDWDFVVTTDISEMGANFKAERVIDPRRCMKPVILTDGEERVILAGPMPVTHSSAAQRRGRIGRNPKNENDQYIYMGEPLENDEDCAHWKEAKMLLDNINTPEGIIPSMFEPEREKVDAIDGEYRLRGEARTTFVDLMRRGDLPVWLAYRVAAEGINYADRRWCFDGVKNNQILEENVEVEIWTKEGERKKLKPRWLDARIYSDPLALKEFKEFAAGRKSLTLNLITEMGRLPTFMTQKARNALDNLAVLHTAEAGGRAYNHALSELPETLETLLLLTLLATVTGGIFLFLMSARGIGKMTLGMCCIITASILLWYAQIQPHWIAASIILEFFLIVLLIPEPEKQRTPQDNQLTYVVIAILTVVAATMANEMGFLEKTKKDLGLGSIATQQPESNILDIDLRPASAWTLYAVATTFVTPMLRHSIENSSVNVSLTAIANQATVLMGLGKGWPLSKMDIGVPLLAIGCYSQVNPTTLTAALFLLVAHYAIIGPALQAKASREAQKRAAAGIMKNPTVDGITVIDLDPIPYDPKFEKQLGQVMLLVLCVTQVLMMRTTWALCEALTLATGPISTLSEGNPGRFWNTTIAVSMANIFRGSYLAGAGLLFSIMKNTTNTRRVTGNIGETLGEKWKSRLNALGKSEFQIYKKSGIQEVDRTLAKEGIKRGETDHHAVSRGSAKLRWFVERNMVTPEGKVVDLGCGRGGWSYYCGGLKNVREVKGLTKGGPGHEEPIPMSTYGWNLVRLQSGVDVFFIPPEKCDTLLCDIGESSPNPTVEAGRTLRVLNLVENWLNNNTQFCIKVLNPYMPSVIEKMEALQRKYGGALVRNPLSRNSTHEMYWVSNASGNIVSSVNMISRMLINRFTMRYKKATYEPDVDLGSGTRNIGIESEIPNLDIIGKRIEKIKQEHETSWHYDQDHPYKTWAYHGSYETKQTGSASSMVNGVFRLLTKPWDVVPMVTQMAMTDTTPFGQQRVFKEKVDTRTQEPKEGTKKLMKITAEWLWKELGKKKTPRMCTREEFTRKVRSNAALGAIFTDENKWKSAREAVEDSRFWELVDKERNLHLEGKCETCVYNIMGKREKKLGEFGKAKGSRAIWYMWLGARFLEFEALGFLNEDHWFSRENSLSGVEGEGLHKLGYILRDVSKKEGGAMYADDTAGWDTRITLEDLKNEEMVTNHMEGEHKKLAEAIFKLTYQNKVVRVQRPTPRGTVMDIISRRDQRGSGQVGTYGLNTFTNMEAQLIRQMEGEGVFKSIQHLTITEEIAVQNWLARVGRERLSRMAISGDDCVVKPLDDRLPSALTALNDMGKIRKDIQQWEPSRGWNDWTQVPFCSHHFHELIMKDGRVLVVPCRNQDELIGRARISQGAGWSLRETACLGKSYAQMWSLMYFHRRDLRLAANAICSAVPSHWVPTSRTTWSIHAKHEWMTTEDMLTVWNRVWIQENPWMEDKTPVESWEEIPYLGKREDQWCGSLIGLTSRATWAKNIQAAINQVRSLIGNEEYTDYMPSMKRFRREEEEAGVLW
Experiment: flavivirus cap methylation enzyme inhibition – biochemical, confirmation dose response, primary screen (AID 588689)
Conditions: Dengue-2 NS5 methyltransferase capping enzyme assay, at 25 µM, hits give high values
The campaign covered roughly 340,000 compounds. About 1,000 (0.29%) were called active. Only a sample is shown. Results with a measured potency or affinity are listed apart.
Quantity Kind: inhibition (%)
Your answer should be a plain number; it is taken to be in %.

Compound	Target Or Test System	Endpoint Unit	Readout Value
CCN(CC(=O)NCc1cccs1)C(=O)CCC(=O)c1ccc(C)cc1	Genome polyprotein (Dengue virus type 2 (strain 16681-PDK53)) (UniProt P29991)	%	-8.12

Report inhibition for Cc1cc(C)cc(NC(=O)CS(=O)(=O)c2cccc3nsnc23)c1 please. -0.79

Now give it for Cc1ccccc1NC1=C/C(=N\S(=O)(=O)c2cccs2)c2ccccc2C1=O too. 63.2

Now give it for Cc1cc(NC(=O)CCC(=O)N(c2ccc(F)cc2)C(C(=O)NC2CCCC2)c2cccnc2)no1 (stereo not given) too. 6.51

Now give it for COc1ccc(CC(=O)Nc2ccc(S(=O)(=O)N3CCOCC3)cc2)cc1 too. 0
